Assignment: determine reported EC50 for the given compounds.
# target: hNK3R (Homo sapiens, UniProt P29371)
# Sequence (P29371 whole entry): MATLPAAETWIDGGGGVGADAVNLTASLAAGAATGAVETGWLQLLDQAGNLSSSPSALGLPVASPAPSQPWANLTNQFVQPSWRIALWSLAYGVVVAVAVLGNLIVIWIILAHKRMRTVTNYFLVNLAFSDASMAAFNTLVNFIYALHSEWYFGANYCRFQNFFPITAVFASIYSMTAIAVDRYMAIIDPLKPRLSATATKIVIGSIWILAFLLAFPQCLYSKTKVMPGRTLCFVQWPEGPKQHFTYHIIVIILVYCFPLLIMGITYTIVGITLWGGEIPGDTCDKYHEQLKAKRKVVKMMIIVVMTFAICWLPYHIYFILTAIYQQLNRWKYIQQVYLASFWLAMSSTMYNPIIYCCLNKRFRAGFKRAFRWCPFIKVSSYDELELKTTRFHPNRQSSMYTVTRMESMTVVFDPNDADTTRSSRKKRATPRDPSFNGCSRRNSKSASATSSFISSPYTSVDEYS
# assay-method-text: IP3 assay (inositol trisphosphate, 3H-myoinositol) in transiently transfected COS-7 cells
# condition: COS-7 cells, 0.2% ovalbumin buffer; read-out: hNK3, IP3 EC50
Numbered stars: 1 amine (or outer) side, 2 acyl side, 3 side chain; on linkers, the order of the positions; unused ones are H or OH. Square brackets hold non-standard residues; d marks the D form. Peptide text beside a SMILES is read from it. * marks the point of attachment. C18 diacid = O=C(O)CCCCCCCCCCCCCCCCC(=O)*; γGlu = O=C(O)[C@H](CCC(=O)[*:2])N[*:1]; Stearoyl = CCCCCCCCCCCCCCCCCC(=O)*; NMeL = CN[C@@H](CC(C)C)C(=O)O; hSer = N[C@@H](CCO)C(=O)O; Nle = CCCC[C@H](N)C(=O)O; AEEA = NCCOCCOCC(=O)O
Give bare numbers, in nM.

{"compound": "CCCC[C@H](NC(=O)[C@H](CC(C)C)N(C)C(=O)CNC(=O)[C@@H](NC(=O)[C@H](Cc1ccccc1)NC(=O)[C@H](CCCCN)NC(=O)[C@H](CC(=O)O)NC(=O)COCCOCCNC(=O)COCCOCCNC(=O)CC[C@H](NC(=O)CCCCCCCCCCCCCCCCC(=O)O)C(=O)O)[C@@H](C)O)C(N)=O [compound 387, *Asp;Lys;Phe;Thr;Gly;NmLeu;Nle;NH2] ({C18 diacid-γGlu-AEEA-AEEA}-DKFTG[NMeL][Nle]-NH2)", "measured-value": 34}
{"compound": "COCC[C@H](NC(=O)[C@H](CC(C)C)N(C)C(=O)CNC(=O)[C@@H](NC(=O)[C@H](Cc1ccccc1)NC(=O)[C@H](CCCCN)NC(=O)[C@H](CC(=O)O)NC(=O)COCCOCCNC(=O)COCCOCCNC(=O)CC[C@H](NC(=O)CCCCCCCCCCCCCCCCC(=O)O)C(=O)O)[C@@H](C)O)C(N)=O [compound 383, *Asp;Lys;Phe;Thr;Gly;NmLeu;Metox;NH2] ({C18 diacid-γGlu-AEEA-AEEA}-DKFTG[NMeL][hSer](Me)-NH2)", "measured-value": 313}
{"compound": "CCCCCCCCCCCCCCCCCC(=O)N[C@@H](CCC(=O)NCCOCCOCC(=O)NCCOCCOCC(=O)N[C@@H](CC(=O)O)C(=O)N[C@@H](CCCCN)C(=O)N[C@@H](Cc1ccc(O)cc1)C(=O)N[C@H](C(=O)NCC(=O)N(C)[C@@H](CC(C)C)C(=O)N[C@@H](CCOC)C(N)=O)C(C)C)C(=O)O [compound 391, *Asp;Lys;Tyr;Val;Gly;NmLeu;Metox;NH2] ({Stearoyl-γGlu-AEEA-AEEA}-DKYVG[NMeL][hSer](Me)-NH2)", "measured-value": 4}

Below: the item to evaluate.
I am curious: what EC50 value has been reported for CCCC[C@H](NC(=O)[C@H](CC(C)C)NC(=O)CNC(=O)[C@@H](NC(=O)[C@H](Cc1ccccc1)NC(=O)[C@H](CO)NC(=O)[C@H](CC(=O)O)NC(=O)[C@@H](NC(=O)[C@H](CCCCN)NC(=O)COCCOCCNC(=O)COCCOCCNC(=O)CC[C@H](NC(=O)CCCCCCCCCCCCCCCCC(=O)O)C(=O)O)[C@@H](C)O)C(C)C)C(N)=O ? 1000
